Experiment: Cyclic voltammetry of isoindigos in DMF (half-wave redox potentials under N2 or CO2)
Assay type: physicochemical
Conditions: second half-wave potential vs. Fc^+/Fc; 2.5 mM in DMF, 0.1 M NBu4PF6, CO2, 298 K
property_label: E1/2 in CO2 (second) (V)
Write the answer as a number in V, unit excluded.

Solved cases below.
[
  {
    "molecule": "COC(=O)c1ccc2c(c1)NC(=O)/C2=C1/C(=O)Nc2ccc([N+](=O)[O-])cc21 [5N6MCIId, Methyl-5-nitroisoindigo-6-carboxylate]",
    "E1/2 in CO2 (second), V": "−1.15"
  },
  {
    "molecule": "CCCCC(CC)CN1C(=O)/C(=C2/C(=O)N(CC(CC)CCCC)c3ccccc32)c2ccccc21 (stereo not shown)",
    "E1/2 in CO2 (second), V": "−1.45"
  },
  {
    "molecule": "CCCN1C(=O)/C(=C2/C(=O)N(CCC)c3cc(Br)ccc32)c2ccc(Br)cc21",
    "E1/2 in CO2 (second), V": "−1.34"
  }
]

Query :: Item `O=C1Nc2ccccc2/C1=C1\C(=O)Nc2cc(C(=O)O)ccc21` has what recorded E1/2 in CO2 (second)?
Result :: −1.18

----------
Assay: CO2 binding constant (KCO2) calculated from the shift of the second reduction peak in CV
Settings: difference between the second reduction peak potentials (IId·−/IId2−) in CO2 and N2
Description: Electrochemical measurements were conducted using a BioLogic VSP potentiostat (BioLogic Science Instruments). For the cyclic voltammetry measurements, glassy carbon (Ø=3 mm) was used as the working electrode, platinum wire was used as the counter electrode, silver wire was used as the pseudo-reference electrode and ferrocene was used as the internal reference. […] The CO2 binding constant (KCO2) was calculated by Eq 1: […]
property_label: ΔEpeak(2)
Please answer in the form of a number followed by its unit of measurement.

Query :: Entry CCCCC(CC)CN1C(=O)/C(=C2/C(=O)N(CC(CC)CCCC)c3ccccc32)c2ccccc21 (centres unmarked) [NNDEHIId, N,N′-Di-(2-ethylhexyl)-isoindigo] : reported ΔEpeak(2) = ?
Result :: 0.350 V

----------
Test: Cyclic voltammetry of isoindigos in DMF (half-wave redox potentials under N2 or CO2)
Format: physicochemical
Details: first half-wave potential vs. Fc^+/Fc; 2.5 mM in DMF, 0.1 M NBu4PF6, N2, 298 K
Listing of recorded E1/2 in N2 (first) by entry.

// below: answered compounds
[
  {
    "compound": "O=C1Nc2cc(F)c(F)cc2/C1=C1\\C(=O)Nc2cc(F)c(F)cc21 [5566TFIId, 5,5′,6,6′-Tetrafluoroisoindigo]",
    "E1/2 in N2 (first)": "−1.10, V"
  },
  {
    "compound": "O=C1Nc2ccccc2/C1=C1\\C(=O)Nc2ccc(Br)cc21 [5BIId, 5-Bromoisoindigo]",
    "E1/2 in N2 (first)": "−1.19, V"
  },
  {
    "compound": "COC(=O)c1ccc2c(c1)NC(=O)/C2=C1/C(=O)Nc2cc(Br)ccc21 [6B6MCIId, Methyl 6-bromoisoindigo-6′-carboxylate]",
    "E1/2 in N2 (first)": "−1.05, V"
  }
]

# next compound below
Query :: Requested field: E1/2 in N2 (first). Item: COC(=O)c1ccc2c(c1)NC(=O)/C2=C1/C(=O)Nc2cc(C(=O)OC)ccc21 [66DMCIId, Dimethyl isoindigo-6,6′-dicarboxylate]
Result :: −0.97, V

----------
Assay: CO2 binding constant (KCO2) calculated from the shift of the second reduction peak in CV
Conditions: DMF, 298 K
The threshold is inclusive: logK[CO2] of exactly 8 counts as TRUE; values below receive FALSE.

Query :: Quick check, logK[CO2] >= 8? COC(=O)c1ccc2c(c1)NC(=O)/C2=C1/C(=O)Nc2cc(Br)ccc21 [6B6MCIId, Methyl 6-bromoisoindigo-6′-carboxylate]
Result :: TRUE

Query :: What do you get for `O=C1Nc2ccc(Br)cc2/C1=C1\C(=O)Nc2ccc(Br)cc21` ?
Result :: TRUE

Query :: Lookup COC(=O)c1ccc2c(c1)NC(=O)/C2=C1/C(=O)Nc2ccc([N+](=O)[O-])cc21 [5N6MCIId, Methyl-5-nitroisoindigo-6-carboxylate]
Result :: FALSE

Query :: Note, next up: COC(=O)c1ccc2c(c1)NC(=O)/C2=C1/C(=O)Nc2ccccc21 [6MCIId, Methyl isoindigo-6-carboxylate]
Result :: TRUE

Query :: `O=C1Nc2ccccc2/C1=C1\C(=O)Nc2cc(C(=O)O)ccc21` , same question.
Result :: FALSE

----------
Assay: CO2 binding constant (KCO2) calculated from the shift of the second reduction peak in CV
Settings: DMF, 298 K
Method: Electrochemical measurements were conducted using a BioLogic VSP potentiostat (BioLogic Science Instruments). For the cyclic voltammetry measurements, glassy carbon (Ø=3 mm) was used as the working electrode, platinum wire was used as the counter electrode, silver wire was used as the pseudo-reference electrode and ferrocene was used as the internal reference. […] The CO2 binding constant (KCO2) was calculated by Eq 1: […]
Let's look at some molecules and their measured K[CO2].

Please review the entries below; each comes with its answer.
[
  {
    "molecule": "CCCCC(CC)CN1C(=O)/C(=C2/C(=O)N(CC(CC)CCCC)c3ccccc32)c2ccccc21 (centres unmarked)",
    "K[CO2]": "4.19e+06 M⁻¹"
  },
  {
    "molecule": "COc1ccc2c(c1)/C(=C1\\C(=O)Nc3ccc(OC)cc31)C(=O)N2",
    "K[CO2]": "1.13e+09 M⁻¹"
  },
  {
    "molecule": "COC(=O)CNC(=O)c1ccc2c(c1)NC(=O)/C2=C1/C(=O)Nc2ccccc21 [6AIIdGly, Methyl isoindigo-6-carbonylglycinate]",
    "K[CO2]": "4.3e+08 M⁻¹"
  },
  {
    "molecule": "O=C1Nc2ccccc2/C1=C1\\C(=O)Nc2ccccc21",
    "K[CO2]": "2.19e+09 M⁻¹"
  }
]

Query :: Request the reported K[CO2] associated with COC(=O)c1ccc2c(c1)NC(=O)/C2=C1/C(=O)Nc2ccccc21 [6MCIId, Methyl isoindigo-6-carboxylate]
Result :: 7.78e+08 M⁻¹

Query :: Same lookup for COC(=O)C(CO)NC(=O)c1ccc2c(c1)NC(=O)/C2=C1/C(=O)Nc2cc(Br)ccc21 (centres unmarked) , please.
Result :: 5.41e+08 M⁻¹

Query :: Please answer likewise for `O=C1Nc2ccc(Br)cc2/C1=C1\C(=O)Nc2ccc(Br)cc21`
Result :: 2.16e+09 M⁻¹

Query :: What would you report for `O=C1Nc2cc(F)c(F)cc2/C1=C1\C(=O)Nc2cc(F)c(F)cc21` ?
Result :: 2.17e+10 M⁻¹

Query :: What do you get for `O=C1Nc2ccc(F)cc2/C1=C1\C(=O)Nc2ccc(F)cc21` ?
Result :: 9.13e+09 M⁻¹

Query :: Next entry: COC(=O)c1ccc2c(c1)NC(=O)/C2=C1/C(=O)Nc2cc(Br)ccc21 [6B6MCIId, Methyl 6-bromoisoindigo-6′-carboxylate]
Result :: 8.34e+08 M⁻¹

----------
Test: Cyclic voltammetry of isoindigos in DMF (half-wave redox potentials under N2 or CO2)
Format: physicochemical
Details: second half-wave potential vs. Fc^+/Fc; 2.5 mM in DMF, 0.1 M NBu4PF6, N2, 298 K
E1/2 in N2 (second) values for the molecules below.
Number plus unit, in that order.

[
  {
    "molecule": "O=C1Nc2ccccc2/C1=C1\\C(=O)Nc2ccc(Br)cc21 [5BIId, 5-Bromoisoindigo]",
    "result_value": "−1.67 V"
  }
]

Query :: Quick one: E1/2 in N2 (second) for COC(=O)c1ccc2c(c1)NC(=O)/C2=C1/C(=O)Nc2cc(C(=O)OC)ccc21 [66DMCIId, Dimethyl isoindigo-6,6′-dicarboxylate] ?
Result :: −1.41 V

Query :: Would you kindly repeat that for O=C1Nc2ccccc2/C1=C1\C(=O)Nc2cc(C(=O)O)ccc21 [6CIId, Isoindigo-6-carboxylic Acid] ?
Result :: −1.35 V

Query :: Lookup COC(=O)C(CO)NC(=O)c1ccc2c(c1)NC(=O)/C2=C1/C(=O)Nc2cc(Br)ccc21 (stereo not shown) [6B6AIIdSer]
Result :: −1.55 V

----------
Experiment: CO2 binding constant (KCO2) calculated from the shift of the second reduction peak in CV
Conditions: Table 1; DMF
Quick reference: logK[CO2] of the listed items.
Please reply with the value in numeric form only.

[
  {
    "compound": "O=C1Nc2cc(Br)ccc2/C1=C1\\C(=O)Nc2cc(Br)ccc21 [66DBIId, 6,6′-Dibromoisoindigo]",
    "result_value": 9.59
  },
  {
    "compound": "O=C1Nc2ccccc2/C1=C1\\C(=O)Nc2ccccc21 [IId, Isoindigo]",
    "result_value": 9.34
  },
  {
    "compound": "O=C1Nc2ccccc2/C1=C1\\C(=O)Nc2ccc(Br)cc21 [5BIId, 5-Bromoisoindigo]",
    "result_value": 9.05
  },
  {
    "compound": "COc1ccc2c(c1)/C(=C1\\C(=O)Nc3ccc(OC)cc31)C(=O)N2 [55DMIId, 5,5′-Dimethoxylisoindigo]",
    "result_value": 9.05
  },
  {
    "compound": "CCCN1C(=O)/C(=C2/C(=O)N(CCC)c3cc(Br)ccc32)c2ccc(Br)cc21 [NNDPr66DBIId, N,N′-Dipropyl-6,6′-dibromoisoindigo]",
    "result_value": 4.87
  },
  {
    "compound": "COC(=O)c1ccc2c(c1)NC(=O)/C2=C1/C(=O)Nc2ccccc21 [6MCIId, Methyl isoindigo-6-carboxylate]",
    "result_value": 8.89
  }
]

Shifting focus to the compound that follows.
Query :: What measured logK[CO2] goes with O=C1Nc2ccc(Br)cc2/C1=C1\C(=O)Nc2ccc(Br)cc21 [55DBIId, 5,5′-Dibromoisoindigo] ?
Result :: 9.33
